Data credit: ChEMBL document CHEMBL5126585

Assay: Cytotoxicity against IL2 independent FL-4 cells assessed as reduction in cell viability measured after 7 days by MTT assay
Format: toxicity, cell-based, Felis catus
Conditions: cat, time 7 day
Listing: CC50 at 168 h of selected compounds
Answer format: numeric, µM implied, no suffix.

Sample records with CC50 at 168 h:
>>> obs_value("Clc1nss/c1=N\\c1cccc(Br)n1")
44
>>> obs_value("Clc1nss/c1=N\\c1nccs1")
4.7
>>> obs_value("CSc1ccc(/N=c2\\ssnc2Cl)cc1")
51

Turning now to a further compound:
Recorded CC50 at 168 h (compound COc1cccc(/N=c2\ssnc2Cl)n1 ): 47

---

Listing: log10 of CC50 at 24 h of selected compounds
Experiment: Cytotoxicity against CRFK cells assessed as reduction in cell viability incubated for 24 hrs by MTT assay
Format: toxicity, cell-based, Felis catus
Conditions: cat
Recall that a logarithmic scale is used here: each number is log10 of CC50 at 24 h in µM.

Sample records with log10 of CC50 at 24 h:
>>> obs_value("N#Cc1ccc(/N=c2\\ssnc2Cl)cc1")
1.49
>>> obs_value("N#Cc1cccnc1/N=c1\\ssnc1Cl")
0.49
>>> obs_value("CSc1ccc(/N=c2\\ssnc2Cl)cc1")
1.63
>>> obs_value("Clc1nss/c1=N\\c1cccc(Br)n1")
1.58

Recorded log10 of CC50 at 24 h (compound Clc1nss/c1=N\c1cc(-c2ccccc2)n[nH]1 ): 1.26

Recorded log10 of CC50 at 24 h (compound N#Cc1c(Br)cccc1/N=c1\ssnc1Cl ): 1.58

Recorded log10 of CC50 at 24 h (compound COc1cccnc1/N=c1\ssnc1Cl ): 1.57

Recorded log10 of CC50 at 24 h (compound Cc1cc(/N=c2\ssnc2Cl)n(Cc2ccccc2)n1 ): 1.52

---

Assay: Cytotoxicity against IL2 independent FL-4 cells assessed as reduction in cell viability measured after 7 days by MTT assay
Format: toxicity, cell-based, Felis catus
Conditions: cat, time 7 day
# 1 (yes) = CC50 at 168 h below 50 µM (exclusive); 0 (no) = CC50 at 168 h at/above 50 µM

Illustrative cases are given below, each with its answer.
>>> group("Clc1ccc(/N=c2\\ssnc2Cl)cc1")
"1 (yes)"
>>> group("Clc1nss/c1=N\\c1ccc(Br)cc1")
"0 (no)"
>>> group("N#Cc1c(Br)cccc1/N=c1\\ssnc1Cl")
"0 (no)"
>>> group("Clc1nss/c1=N\\c1ccccn1")
"1 (yes)"
>>> group("O=[N+]([O-])c1cccnc1/N=c1\\ssnc1Cl")
"1 (yes)"

(Q) Problem: For the compound Clc1nss/c1=N\c1ccc(Oc2ccccc2)cc1 , is CC50 at 168 h under 50 µM?
(A) 0 (no)

(Q) Problem: For the compound Fc1ccc(F)c(/N=c2\ssnc2Cl)c1 , is CC50 at 168 h under 50 µM?
(A) 0 (no)

(Q) Problem: For the compound Fc1ccc(/N=c2\ssnc2Cl)cc1 , is CC50 at 168 h under 50 µM?
(A) 0 (no)

(Q) Problem: For the compound Cc1cc(/N=c2\ssnc2Cl)n(Cc2ccccc2)n1 , is CC50 at 168 h under 50 µM?
(A) 0 (no)

---

Test: Cytotoxicity against CRFK cells assessed as reduction in cell viability incubated for 24 hrs by MTT assay
Assay type: toxicity, cell-based, Felis catus
Settings: cat
measurement-kind: CC50 at 24 h

Sample records with CC50 at 24 h:
>>> obs_value("Clc1nss/c1=N\\c1ccc(I)cc1")
"73 µM"
>>> obs_value("FC(F)(F)Oc1ccc(/N=c2\\ssnc2Cl)cc1")
"> 100 µM"
>>> obs_value("Clc1nss/c1=N\\c1ccc2c(c1)OCO2")
"44 µM"

Recorded CC50 at 24 h (molecule Cc1cc(/N=c2\ssnc2Cl)n[nH]1 ): > 100 µM

Recorded CC50 at 24 h (molecule Clc1nss/c1=N\c1ccc(Oc2ccccc2)cc1 ): > 100 µM

Recorded CC50 at 24 h (molecule FC(F)(F)Oc1ccc(/N=c2\ssnc2Cl)cc1Cl ): 85 µM

Recorded CC50 at 24 h (molecule Clc1nss/c1=N\c1ccccn1 ): 29 µM

---

Assay: Therapeutic index, ratio of CC50 for cytotoxicity against IL2 independent FL-4 cells to EC50 for antiviral activity against Feline immunodeficiency virus infected in IL2 independent FL-4 cells
Type: toxicity, cell-based
Conditions: cat; read-out: Ratio CC50/EC50
measurement-kind: selectivity ratio
# output: bare number, no unit

>>> obs_value("N#Cc1cccnc1/N=c1\\ssnc1Cl")
122
>>> obs_value("COc1cccc(/N=c2\\ssnc2Cl)n1")
178
>>> obs_value("O=[N+]([O-])c1ccc(/N=c2\\ssnc2Cl)cc1")
170
>>> obs_value("Cc1cc(/N=c2\\ssnc2Cl)n(Cc2ccccc2)n1")
2.4
>>> obs_value("FC(F)(F)Oc1ccc(/N=c2\\ssnc2Cl)cc1Cl")
1

Recorded selectivity ratio (compound Clc1nss/c1=N\c1cc(-c2ccccc2)nn1Cc1ccccc1 ): 1.7

Recorded selectivity ratio (compound N#Cc1c(Br)cccc1/N=c1\ssnc1Cl ): 3.5

Recorded selectivity ratio (compound O=[N+]([O-])c1cccnc1/N=c1\ssnc1Cl ): 1.3

Recorded selectivity ratio (compound Clc1nss/c1=N\c1ccc2c(c1)OCO2 ): 2.5

---

Listing: CC50 at 24 h of selected compounds
Experiment: Cytotoxicity against FEA cells assessed as reduction in cell viability incubated for 24 hrs by MTT assay
Type: toxicity, cell-based, Felis catus
Details: cat
Answer format: numeric, µM implied, no suffix.

Sample records with CC50 at 24 h:
>>> obs_value("Clc1nss/c1=N\\c1cc(-c2ccccc2)nn1Cc1ccccc1")
29
>>> obs_value("N#Cc1cccnc1/N=c1\\ssnc1Cl")
36
>>> obs_value("Cc1cc(/N=c2\\ssnc2Cl)n(Cc2ccccc2)n1")
30

Recorded CC50 at 24 h (compound Clc1ccccc1/N=c1\ssnc1Cl ): 25

Recorded CC50 at 24 h (compound N#Cc1c(Br)cccc1/N=c1\ssnc1Cl ): 41

---

Listing: CC50 at 168 h of selected molecules
Experiment: Cytotoxicity against IL2 independent FL-4 cells assessed as reduction in cell viability measured after 7 days by MTT assay
Format: toxicity, cell-based, Felis catus
Conditions: cat, time 7 day

>>> obs_value("COc1cccnc1/N=c1\\ssnc1Cl")
"61 µM"
>>> obs_value("Clc1nss/c1=N\\c1cc(-c2ccccc2)nn1Cc1ccccc1")
"53 µM"
>>> obs_value("Clc1nss/c1=N\\c1ccc(OCc2ccccc2)cc1")
"44 µM"

Turning now to a further molecule:
Recorded CC50 at 168 h (molecule Clc1nss/c1=N\c1cc(-c2ccccc2)n[nH]1 ): 4.9 µM

---

Test: Cytotoxicity against FEA cells assessed as reduction in cell viability incubated for 24 hrs by MTT assay
Assay type: toxicity, cell-based, Felis catus
Details: cat
measurement-kind: CC50 at 24 h (µM)
Answer format: numeric, µM implied, no suffix.

Recorded CC50 at 24 h (compound Clc1nss/c1=N\c1nccs1 ): 8.4

Recorded CC50 at 24 h (compound Clc1nss/c1=N\c1ccc(OCc2ccccc2)cc1 ): 74

Recorded CC50 at 24 h (compound Clc1nss/c1=N\c1cccc(Br)n1 ): 52

---

Experiment: Cytotoxicity against CRFK cells assessed as reduction in cell viability incubated for 24 hrs by MTT assay
Type: toxicity, cell-based, Felis catus
Settings: cat
Listing: CC50 at 24 h of selected molecules

>>> obs_value("Fc1ccc(F)c(/N=c2\\ssnc2Cl)c1")
"> 100 µM"
>>> obs_value("Clc1nss/c1=N\\c1ccc(OCc2ccccc2)cc1")
"> 100 µM"
>>> obs_value("Clc1ccccc1/N=c1\\ssnc1Cl")
"> 100 µM"
>>> obs_value("FC(F)(F)c1ccc(/N=c2\\ssnc2Cl)cc1")
"> 100 µM"
>>> obs_value("FC(F)(F)Oc1ccc(/N=c2\\ssnc2Cl)cc1Br")
"> 100 µM"
>>> obs_value("Clc1nss/c1=N\\c1cccc(Br)c1")
"> 100 µM"

Recorded CC50 at 24 h (molecule Clc1nss/c1=N\c1ccc(Br)cc1 ): > 100 µM

---

Assay: Cytotoxicity against IL2 independent FL-4 cells assessed as reduction in cell viability measured after 7 days by MTT assay
Format: toxicity, cell-based, Felis catus
Settings: cat, time 7 day
measurement-kind: CC50 at 168 h

Sample records with CC50 at 168 h:
>>> obs_value("Clc1nss/c1=N\\c1cccc(Br)c1")
"> 100 µM"
>>> obs_value("Cc1cc(OC(F)(F)F)ccc1/N=c1\\ssnc1Cl")
"> 100 µM"

Turning now to a further compound:
Recorded CC50 at 168 h (compound FC(F)(F)Oc1ccc(/N=c2\ssnc2Cl)cc1 ): > 100 µM

---

Listing: CC50 at 168 h of selected compounds
Assay: Cytotoxicity against IL2 independent FL-4 cells assessed as reduction in cell viability measured after 7 days by MTT assay
Format: toxicity, cell-based, Felis catus
Conditions: cat, time 7 day
Answer format: numeric, µM implied, no suffix.

Sample records with CC50 at 168 h:
>>> obs_value("O=[N+]([O-])c1ccc(/N=c2\\ssnc2Cl)cc1")
49
>>> obs_value("Clc1ccccc1/N=c1\\ssnc1Cl")
51

Recorded CC50 at 168 h (compound Cc1cc(/N=c2\ssnc2Cl)n[nH]1 ): 50

Recorded CC50 at 168 h (compound Clc1nss/c1=N\c1ccc2c(c1)OCO2 ): 49

Recorded CC50 at 168 h (compound N#Cc1cccnc1/N=c1\ssnc1Cl ): 51
